B1: Caulobacter ParB omega fusion; a variant is named by its letters at X, in order, B8GW30 (parent)
chain: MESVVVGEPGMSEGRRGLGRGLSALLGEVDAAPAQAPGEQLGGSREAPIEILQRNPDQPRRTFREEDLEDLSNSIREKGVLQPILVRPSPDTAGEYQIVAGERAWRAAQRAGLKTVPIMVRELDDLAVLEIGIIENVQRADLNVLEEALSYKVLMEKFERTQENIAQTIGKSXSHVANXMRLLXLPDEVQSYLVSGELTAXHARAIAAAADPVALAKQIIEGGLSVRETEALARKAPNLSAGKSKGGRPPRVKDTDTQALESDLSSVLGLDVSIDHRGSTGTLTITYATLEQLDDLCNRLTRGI

Variants of: B1
ASSAY_INFO: one-hybrid fitness for binding NBS DNA (the Noc-binding site; scaled: cognate 1, non-cognate 0); higher = stronger binding
STATED_CONDITIONS: with NBS DNA site
The full ranking holds about 81,000 sequences; the median of “one-hybrid fitness for binding NBS DNA” is about -0.1, and the highest 2% start at about 0.36. What follows is part of a selection rich in the highest values, with near analogues and random picks from the rest.
REPORTED_METRIC: one-hybrid fitness for binding NBS DNA

Prompt: Recorded one-hybrid fitness for binding NBS DNA for DLLN , please?
Response: ≤ 0.2

Prompt: Recorded one-hybrid fitness for binding NBS DNA for QSHY , please?
Response: 0.201

Prompt: Recorded one-hybrid fitness for binding NBS DNA for RPAY , please?
Response: ≤ 0.2

Prompt: Recorded one-hybrid fitness for binding NBS DNA for PLQH , please?
Response: ≤ 0.2

Prompt: Recorded one-hybrid fitness for binding NBS DNA for NTKL , please?
Response: ≤ 0.2

Prompt: Recorded one-hybrid fitness for binding NBS DNA for QTHH , please?
Response: 0.44

Prompt: Recorded one-hybrid fitness for binding NBS DNA for SSIR , please?
Response: ≤ 0.2

Prompt: Recorded one-hybrid fitness for binding NBS DNA for LKHN , please?
Response: ≤ 0.2

Prompt: Recorded one-hybrid fitness for binding NBS DNA for RHGH , please?
Response: ≤ 0.2

Prompt: Recorded one-hybrid fitness for binding NBS DNA for QTHD , please?
Response: ≤ 0.2

Prompt: Recorded one-hybrid fitness for binding NBS DNA for SDVP , please?
Response: ≤ 0.2

Prompt: Recorded one-hybrid fitness for binding NBS DNA for RHSD , please?
Response: ≤ 0.2

Prompt: Recorded one-hybrid fitness for binding NBS DNA for QTHS , please?
Response: 0.585

Prompt: Recorded one-hybrid fitness for binding NBS DNA for PSTD , please?
Response: ≤ 0.2
